- Measured on: Phenylethanolamine N-methyltransferase (Bos taurus, UniProt P10938)
- Sequence (P10938 whole entry): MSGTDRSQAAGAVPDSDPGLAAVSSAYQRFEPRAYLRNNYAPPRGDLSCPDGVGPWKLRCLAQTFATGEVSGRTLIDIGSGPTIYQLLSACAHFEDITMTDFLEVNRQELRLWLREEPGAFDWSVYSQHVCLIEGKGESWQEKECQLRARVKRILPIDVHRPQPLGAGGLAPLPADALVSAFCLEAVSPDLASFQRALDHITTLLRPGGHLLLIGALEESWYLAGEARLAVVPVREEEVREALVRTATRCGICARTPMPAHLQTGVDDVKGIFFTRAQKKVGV
Recorded metric: log10 IC50 (log10 of the value in µM)
Record value = log10 of IC50 given in µM.

Here's what some known entries look like.
CCCCCCC(C)(C#N)O[Si](C)(C)C (configuration not stated) = 2.82
CCC(C=O)CC = 2.74
O=CC1CCCC1 = 2.65
CCC(CC)C(C#N)O[Si](C)(C)C (configuration not stated) = 2.74
CCCCC(O)CN (configuration not stated) = 2.54

The compound listed as CCCCCCCC(C#N)O[Si](C)(C)C (configuration not stated) shows log10 IC50 equal to 2.33

For CCCCCCC(C)=O the compound record lists log10 IC50 as 2.82

response.value for CCCCCCC=O (field: log10 IC50) = 2.04

====

- Measured on: Phenylethanolamine N-methyltransferase (Bos taurus, UniProt P10938)
- Sequence (P10938 whole entry): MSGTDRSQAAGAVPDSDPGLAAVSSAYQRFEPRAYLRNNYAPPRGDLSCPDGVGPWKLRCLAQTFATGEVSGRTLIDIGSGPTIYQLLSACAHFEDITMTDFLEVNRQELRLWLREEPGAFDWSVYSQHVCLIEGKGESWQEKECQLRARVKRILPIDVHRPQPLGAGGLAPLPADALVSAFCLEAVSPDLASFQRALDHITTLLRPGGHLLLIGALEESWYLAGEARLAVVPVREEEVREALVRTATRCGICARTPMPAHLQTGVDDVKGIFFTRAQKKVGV
For each record, check the reported IC50: if it is below 500 µM write condition met, else write condition not met.

[ask] Is 500 µM strictly greater than the compound's reported IC50? compound: C[Si](C)(C)OC(C#N)C12CC3CC(CC(C3)C1)C2 (stereo not drawn)
[reply] condition met

[ask] Strictly below 500 µM in IC50? CCCCCC(C)=O
[reply] condition not met

[ask] Bench note: check whether CCC(CC)C(O)CN (stereo not drawn) shows IC50 below 500 µM
[reply] condition not met

[ask] I wonder whether CC(C)CC(O)CN (stereo not drawn) has IC50 below 500 µM. Can you tell?
[reply] condition not met

[ask] Consider O=CC1CCCCCCCC1 [CYCLONONANECARBALDEHYDE] . Does its IC50 lie strictly below 500 µM?
[reply] condition met

====

- Measured on: Phenylethanolamine N-methyltransferase (Bos taurus, UniProt P10938)
- Sequence (P10938 whole entry): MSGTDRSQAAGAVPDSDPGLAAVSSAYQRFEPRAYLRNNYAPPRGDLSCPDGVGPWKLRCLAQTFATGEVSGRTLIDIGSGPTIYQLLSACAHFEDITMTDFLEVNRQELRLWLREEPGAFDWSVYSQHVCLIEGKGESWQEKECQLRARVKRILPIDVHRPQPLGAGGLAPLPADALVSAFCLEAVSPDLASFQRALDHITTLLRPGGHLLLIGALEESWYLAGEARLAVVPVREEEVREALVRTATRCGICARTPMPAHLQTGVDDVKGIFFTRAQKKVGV
Would you mind sorting the entries by IC50 according to these classes? low end = under 20 µM, middle = from 20 µM up to 200 µM, high end = 200 µM and over

Solved entries (count: 3):
C[Si](C)(C)OC(C#N)C1CCC1 (centres undefined) = high end
O=C1CCCC1 = high end
O=C1CCCCC1 = high end

[ask] Category lookup for the molecule CC(C)CC=O
[reply] high end

[ask] Kindly state the category for this molecule: C[Si](C)(C)OC1(C#N)CCCCC1
[reply] high end

[ask] Lab log: CCCCCC(C#N)O[Si](C)(C)C (centres undefined) — assign IC50 category
[reply] high end

[ask] Hello team, could you let me know which band the following molecule falls into: NCC(O)C1CCCCCC1 (centres undefined)
[reply] low end

[ask] Using the reported IC50, which band applies to CCCCCCC(O)CN (centres undefined) ?
[reply] middle

====

Protein target, amino acids: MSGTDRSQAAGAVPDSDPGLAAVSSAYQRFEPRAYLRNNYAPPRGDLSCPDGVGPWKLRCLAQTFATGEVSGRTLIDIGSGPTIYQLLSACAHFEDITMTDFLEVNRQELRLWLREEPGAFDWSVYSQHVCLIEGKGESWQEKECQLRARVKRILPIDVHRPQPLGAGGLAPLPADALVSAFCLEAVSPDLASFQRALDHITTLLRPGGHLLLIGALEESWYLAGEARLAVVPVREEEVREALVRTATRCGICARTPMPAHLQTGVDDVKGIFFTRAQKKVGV
# pIC50 per record follows
# pIC50 = -log10(concentration in molar units)

Below: 2 molecules and their reported pIC50.
NCC(O)C1=C/C=C\C=C/C=C\1 (stereo not drawn) = 3.12
CCCCCCCC(O)CN (stereo not drawn) = 3.67

Pending molecule:
The measured pIC50 associated with C[Si](C)(C)OC(C#N)C1CCCCCCCC1 (stereo not drawn) reads 5.22

====

- Measured on: Phenylethanolamine N-methyltransferase (Bos taurus)
- Test summary: Inhibitory activity against phenylethanolamine N-methyl-transferase
Some compounds, each annotated with its measured IC50.
Just the number please, in µM, no unit attached.

C[Si](C)(C)OC1(C#N)CCCCCCCC1 = 17
CC(C)CC(C#N)O[Si](C)(C)C (stereo unspecified) = 1000
NCC(O)C1=C/CCCC/C=C\1 (stereo unspecified) = 57
O=CC1CCCCCC1 = 8

The compound listed as C[Si](C)(C)OC(C#N)C1CCCCCC1 (stereo unspecified) has a reported IC50 of 8

Value of IC50 reported for the compound O=CC12CC3CC(CC(C3)C1)C2 is 195

IC50 in this record for CCCCCC(C)(C#N)O[Si](C)(C)C (stereo unspecified) : 669

So for NCC(O)C1CCCCCCCC1 (stereo unspecified) , the logged IC50 turned out to be 6

For record CCCCCCC(C#N)O[Si](C)(C)C (stereo unspecified) the listed IC50 is 109

Item: O=C1CCCCCCC1 | IC50: 72

Data provenance: ChEMBL document CHEMBL1121874
